Molecular target: T1, human IL-22 (Homo sapiens, UniProt Q9GZX6)
T1 sequence (Q9GZX6 34-179): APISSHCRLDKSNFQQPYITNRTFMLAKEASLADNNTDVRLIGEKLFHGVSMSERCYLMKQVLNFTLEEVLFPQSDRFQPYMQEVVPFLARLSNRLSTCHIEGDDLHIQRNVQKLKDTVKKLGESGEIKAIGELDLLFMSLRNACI
Assay: SPR capture assay, affinity to human IL-22
Assay type: binding
Details: human IL-22, SPR
The entries below are paired with their reported kd.
Observed Property: kd (s⁻¹)

INSERT INTO results (molecule, unit_label, experimental_result) VALUES
  ('LC-E049K: one of the mutant antibodies in the CPE library, used as a control (antibody, V domains shown) VH: QVQLVQSGAEVKKPGASVKVSCKASGYIFTSYWIHWIRQPPGKGLEWIGRIYPGTGNTYYNEKFKGRVTISADKSISTAYLQWSSLKASDTAMYYCARSYDSSCAYWGQGTLVTVSS VL: AIQLTQSPSSLSASVGDRVTITCSASSSVSYMHWYLQKPGQSPQLLIYKTSKLASGVPSRFSGSGSGTDFTFTISSLEAEDAATYYCQQWSSNPYITFGQGTKVEIKR', 's⁻¹', '5.93e-05'),
  ('CPS02: mutant anti-IL-22 antibody binding human and mouse IL-22; light chain LC-06, heavy chain HC-08 (antibody, V domains shown) VH: QVQLVQSGAEVKKPGASVKVSCKASGYIFRSYWIHWIRQPPGKGLEWIGRIYPGTGRTYYNEKFKGRVTISADKSISTAYLQWSSLKASDTAMYYCARSYDSSVAYWGQGTLVTVSS VL: AIQLTQSPSSLSASVGDRVTITCSASSSVSYMHWYLQKPGQSPQLLIYKTRKLASGVPSRFSGSGSGTDFTFTISSLEAEDAATYYCQQWSSNPYITFGQGTKVEIKR', 's⁻¹', '4.67e-05'),
  ('CPS14 (antibody, V domains shown) VH: QVQLVQSGAEVKKPGASVKVSCKASGYIFTSYWIHWIRQPPGKGLEWIGRIYPGTGRTYYNRKFKGRVTISADKSISTAYLQWSSLKASDTAMYYCARSYDYSVAYWGQGTLVTVSS VL: AIQLTQSPSSLSASVGDRVTITCSASSSVSYMHWYLQKPGQSPQLLIYETRKLASGVPSRFSGSGSGTDFTFTISSLEAEDAATYYCQQWSSNPYITFGQGTKVEIKR', 's⁻¹', '3.55e-05'),
  ('CPS09: mutant anti-IL-22 antibody binding human and mouse IL-22; light chain LC-04, heavy chain HC-25 (antibody, V domains shown) VH: QVQLVQSGAEVKKPGASVKVSCKASGYIFRSYWIHWIRQPPGKGLEWIGRIYPGTGRTYYNEKFKGRVTISADKSISTAYLQWSSLKASDTAMYYCARSYDYSVAYWGQGTLVTVSS VL: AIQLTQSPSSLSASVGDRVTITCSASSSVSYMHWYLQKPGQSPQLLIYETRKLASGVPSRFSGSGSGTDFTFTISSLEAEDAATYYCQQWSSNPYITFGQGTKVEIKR', 's⁻¹', '2.18e-05'),
  ('CPS04: mutant anti-IL-22 antibody binding human and mouse IL-22; light chain LC-07, heavy chain HC-09 (antibody, V domains shown) VH: QVQLVQSGAEVKKPGASVKVSCKASGYIFRSYWIHWIRQPPGKGLEWIGRIYPGTGNTYYNRKFKGRVTISADKSISTAYLQWSSLKASDTAMYYCARSYDSSVAYWGQGTLVTVSS VL: AIQLTQSPSSLSASVGDRVTITCSASSSVSYMHWYLQKPGQSPQLLIYKTSKLLSGVPSRFSGSGSGTDFTFTISSLEAEDAATYYCQQWSSNPYITFGQGTKVEIKR', 's⁻¹', '3.74e-05'),
  ('CPS17: mutant anti-IL-22 antibody binding human and mouse IL-22; light chain LC-04, heavy chain HC-49 (antibody, V domains shown) VH: QVQLVQSGAEVKKPGASVKVSCKASGYIFRSYWIHWIRQPPGKGLEWIGRIYPGTGNTYYNRKFKGRVTISADKSISTAYLQWSSLKASDTAMYYCARSYMYSVAYWGQGTLVTVSS VL: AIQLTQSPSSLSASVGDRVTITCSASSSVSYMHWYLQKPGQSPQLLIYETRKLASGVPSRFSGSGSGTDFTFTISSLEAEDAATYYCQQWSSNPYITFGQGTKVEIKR', 's⁻¹', '6.94e-05');

All values here come from patent US11834472B2.
